system: HCT-116; assay: Cytotoxicity against human HCT116 cells by MTT assay; format: functional, cell-based
# label = class 1 if IC50 < 800 nM else class 0

Please review the entries below; each comes with its answer.
| record-smiles | label |
| --- | --- |
| Nc1nc(NCc2ccc(C(=O)Nc3ccccc3N)cc2)c2nc[nH]c2n1 | class 0 |
| Nc1ccccc1NC(=O)c1ccc(CNc2ncccn2)cc1 | class 0 |
| Nc1ccccc1NC(=O)c1ccc(CNc2nc(NC3Cc4ccccc4C3)nc(N3CCOCC3)n2)cc1 | class 0 |
| COc1ccc(-c2ccnc(NCc3ccc(C(=O)Nc4ccccc4N)cc3)n2)cc1OC | class 1 |
| Nc1ccccc1NC(=O)c1ccc(CNc2nc(NCCN3CCOCC3)nc(NC3Cc4ccccc4C3)n2)cc1 | class 1 |

[in] Hello, is IC50 of the following compound strictly smaller than 800 nM? `Nc1ccccc1NC(=O)c1ccc(CNc2nc(NC3CC3)nc(NC3Cc4ccccc4C3)n2)cc1`
[out] class 0

[in] Also `CCCCn1cnc2c(NCc3ccc(C(=O)Nc4ccccc4N)cc3)nc(N)nc21` ?
[out] class 0

###

tested on: HMEC; experiment: Cytotoxicity against human HMEC cells by MTT assay; type: cell-based
pIC50: −log10 of the molar value.
Reported pIC50 values follow for various molecules

| record-smiles | pIC50 |
| --- | --- |
| Nc1nc(NCc2ccc(C(=O)Nc3ccccc3N)cc2)nc(N2CCOCC2)n1 | < 4.40 |
| Nc1nc(NCc2ccc(C(=O)Nc3ccccc3N)cc2)nc(N2Cc3ccccc3C2)n1 | < 4.30 |

We next turn to a different molecule, shown below.
[in] Recorded pIC50 of `Nc1ccccc1NC(=O)c1ccc(CNc2nc(NC3Cc4ccccc4C3)nc(N3CCOCC3)n2)cc1` , please.
[out] < 4.30

###

target: Histone deacetylase 1 (Homo sapiens); assay: Inhibition of human recombinant HDAC1
Sequence (Q13547 whole entry): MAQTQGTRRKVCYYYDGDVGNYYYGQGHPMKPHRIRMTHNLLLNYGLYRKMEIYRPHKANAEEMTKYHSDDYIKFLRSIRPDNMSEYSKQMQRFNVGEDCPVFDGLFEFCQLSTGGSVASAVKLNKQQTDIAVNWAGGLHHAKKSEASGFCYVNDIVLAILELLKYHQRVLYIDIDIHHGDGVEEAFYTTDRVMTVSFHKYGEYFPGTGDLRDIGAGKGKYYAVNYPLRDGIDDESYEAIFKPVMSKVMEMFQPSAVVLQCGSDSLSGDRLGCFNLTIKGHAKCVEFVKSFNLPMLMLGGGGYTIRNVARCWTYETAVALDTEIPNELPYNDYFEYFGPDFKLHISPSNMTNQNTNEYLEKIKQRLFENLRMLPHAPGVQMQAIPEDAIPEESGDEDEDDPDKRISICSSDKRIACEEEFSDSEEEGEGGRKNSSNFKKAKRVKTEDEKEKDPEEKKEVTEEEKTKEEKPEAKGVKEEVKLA
measurement-label: IC50 (nM)
Note: unit nM is implicit; provide only the numeric part.

| record-smiles | endpoint-unit | IC50 |
| --- | --- | --- |
| COc1ccc(-c2ccnc(NCc3ccc(C(=O)Nc4ccccc4N)cc3)n2)cc1OC | nM | 50 |
| Nc1nc(NCc2ccc(C(=O)Nc3ccccc3N)cc2)nc(NC2Cc3ccccc3C2)n1 | nM | 200 |
| CCCCn1cnc2c(NCc3ccc(C(=O)Nc4ccccc4N)cc3)nc(N)nc21 | nM | 300 |
| Nc1ccccc1NC(=O)c1ccc(CNc2nc(NCCN3CCOCC3)nc(NC3Cc4ccccc4C3)n2)cc1 | nM | 70 |
| COc1cc(NCc2ccc(C(=O)Nc3ccccc3N)cc2)ncn1 | nM | 200 |

[in] Recorded IC50 of `Cc1ccc(C#N)c(OCc2ccc(C(=O)Nc3ccccc3N)cc2)n1` , please.
[out] 300

[in] Also `Nc1nc(NCc2ccc(C(=O)Nc3ccccc3N)cc2)nc(N2Cc3ccccc3C2)n1` ?
[out] 40

[in] Also `Cc1cc(C)nc(NCc2ccc(C(=O)Nc3ccccc3N)cc2)n1` ?
[out] 300

[in] Also `Nc1nc(NCc2ccc(C(=O)Nc3ccccc3N)cc2)c2nc[nH]c2n1` ?
[out] 200

###

test system: HCT-116; test: Cytotoxicity against human HCT116 cells by MTT assay; type: functional, cell-based
measurement-label: pIC50
Bear in mind: pIC50 is minus log10 of a mol/L concentration; give just that figure.

[in] Recorded pIC50 of `Cc1ccc(C#N)c(OCc2ccc(C(=O)Nc3ccccc3N)cc2)n1` , please.
[out] 6.30

[in] Also `Nc1nc(NCc2ccc(C(=O)Nc3ccccc3N)cc2)nc(N2CCOCC2)n1` ?
[out] 6.10

[in] Also `CCCCn1cnc2c(NCc3ccc(C(=O)Nc4ccccc4N)cc3)nc(Cl)nc21` ?
[out] 7.00

###

tested on: HCT-116; experiment: Cytotoxicity against human HCT116 cells by MTT assay; assay type: functional, cell-based
Reported pIC50 values follow for various compounds
Bear in mind: pIC50 is minus log10 of a mol/L concentration; give just that figure.

| record-smiles | tested-system | pIC50 |
| --- | --- | --- |
| COc1ccc(NCc2ccc(C(=O)Nc3ccccc3N)cc2)cn1 | HCT-116 | 6.15 |

[in] Recorded pIC50 of `Nc1nc(NCc2ccc(C(=O)Nc3ccccc3N)cc2)nc(N2CCc3ccccc32)n1` , please.
[out] 6.10

[in] Also `Nc1nc(NCCc2ccccc2)nc(NCc2ccc(C(=O)Nc3ccccc3N)cc2)n1` ?
[out] 6.52

[in] Also `Nc1nc(NCc2ccc(C(=O)Nc3ccccc3N)cc2)nc(NC2Cc3ccccc3C2)n1` ?
[out] 6.22

[in] Also `Nc1nc(NCc2ccc(C(=O)Nc3ccccc3N)cc2)nc(NC2CCCC2)n1` ?
[out] 6.15

[in] Also `Nc1nc(NCc2ccc(C(=O)Nc3ccccc3N)cc2)nc(N2Cc3ccccc3C2)n1` ?
[out] 6.30

[in] Also `Nc1ccccc1NC(=O)c1ccc(CNc2cccc(F)n2)cc1` ?
[out] 6.00

[in] Also `COc1cccc(NCc2ccc(C(=O)Nc3ccccc3N)cc2)n1` ?
[out] 6.10

[in] Also `COc1ccc(-c2cc(Cl)nc(NCc3ccc(C(=O)Nc4ccccc4N)cc3)n2)cc1OC` ?
[out] 6.40
